test system: H358 cells; assay: Cell activity experiment: activity test of H358 cells (MTT, 5 days); format: cell-based; details: Homo sapiens, NCI-H358, 120 h, 5 days incubation, absorbance 492 nm
pIC50: −log10 of the molar value.
testReadout: pIC50

C=CC(=O)N1CCN(c2nc(OC[C@@H]3CCCN3C)nc3c(F)c(-c4cccc5c4C4CC4C5)ncc23)C[C@@H]1CC#N (stereo partly drawn) : 9.66
C=CC(=O)N1CCN(c2nc(OC[C@@H]3CCCN3C)nc3c(F)c(-c4cccc5c4CC(C)C5)ncc23)C[C@@H]1CC#N (stereo partly drawn) : 7.15

(a) C=CC(=O)N1CCN(c2nc(OC[C@@H]3CCCN3C)nc3c(F)c(N4CCc5cc(F)ccc54)ccc23)CC1
(b) C=C(F)C(=O)N1CCN(c2nc(OCC34CCCN3CCC4)nc3cc(-c4cccc5cccc(Cl)c45)ccc23)C[C@@H]1CC#N
(c) C=C(F)C(=O)N1CCN(c2nc(OC[C@@H]3C[C@@H](F)CN3C)nc3c(F)c(-c4cncc5cccc(Cl)c45)ccc23)C[C@@H]1CC#N
(d) C=C(F)C(=O)N1CCN(c2nc(OC[C@@]34CCCN3C[C@H](F)C4)nc3c(F)c(-c4cccc5c4CCCC5)ncc23)C[C@@H]1CC#N
[in] Please order the records by their reported pIC50, lowest number first. Give your ranking as a list of the labels in the requested order.
[out] a, c, b, d

* * *

tested on: H358 cells; test: Cell activity experiment: activity test of H358 cells (MTT, 5 days); assay type: cell-based; conditions: 5 days incubation, absorbance 492 nm
pIC50: −log10 of the molar value.
testReadout: pIC50

Reference set (2 entries):
C=CC(=O)N1CC[C@H]2[C@H]1CN2c1nc(OC[C@@]23CCCN2C[C@H](F)C3)nc2cc(-c3cccc4cccc(Cl)c34)c(Cl)cc12 [Example 474] : 7.52
C=C(F)C(=O)N1CCN(c2nc(OC[C@@]34CCCN3C[C@H](F)C4)nc3c(F)c(-c4cccc5c4CC4CC54)ncc23)C[C@@H]1CC#N (single isomer, unassigned) [Example 880] : 6.36

(I) C=CC(=O)N1CCN(c2nc(OC[C@@H]3CCCN3C)nc3c(F)c(-c4cccc5c4CC4CC54)ccc23)C[C@@H]1CC#N (single isomer, unassigned) [Example 882]
(II) C=CC(=O)N1CCN(c2c(C#N)c(OC[C@@H]3CCCN3C)nc3cc(-c4cccc5c4CCCC5)c(Cl)cc23)C[C@@H]1CC#N [Example 622]
(III) C=C(F)C(=O)N1CCN(c2nc(OCC3(CN4CCCC4)CC3)nc3c(F)c(-c4cccc5c4C4CC4C5)ncc23)C[C@@H]1CC#N (single isomer, unassigned) [Example 868]
(IV) C=CC(=O)N1CCN(c2nc(OC[C@@H]3CCCN3C)nc3c(F)c(-c4cccc5c4CC4CC54)ncc23)C[C@@H]1CC#N (single isomer, unassigned) [Example 873]
[in] Task field, ranking: reported pIC50, descending order. Give your ranking as a list of the labels in the requested order.
[out] III, IV, II, I
(III: 8.18, IV: 7.92, II: 6.64, I: 6.26)

* * *

test system: H358 cells; experiment: Cell activity experiment: activity test of H358 cells (MTT, 5 days); assay type: cell-based; settings: Homo sapiens, NCI-H358, 120 h, 5 days incubation, absorbance 492 nm
pIC50: −log10 of the molar value.
testReadout: pIC50

Reference set (2 entries):
C=CC(=O)N1CC[C@H]2[C@H]1CN2c1nc(OCC23CCCN2CCC3)nc2cc(-c3cccc4cccc(Cl)c34)c(Cl)cc12 [Example 471] : 7.35
C=CC(=O)N1CC[C@@H]2[C@H]1CN2c1nc(OC[C@@H]2CCCN2C)nc2c(F)c(-c3cccc4c3CCCC4)ncc12 [Example 9] : 8.00

(P) C=CC(=O)N1CCN(c2nc(OC[C@@H]3C[C@@H](F)CN3C)nc3cc(-c4cccc5c4CCCC5)ccc23)C[C@@H]1CC#N [Example 112]
(Q) C=CC(=O)N1CCN(c2nc(OC[C@@H]3CCCN3C)nc3cc(-c4cccc5cccc(Cl)c45)ccc23)C[C@@H]1CC#N [Example 73]
(R) C=CC(=O)N1CCN(c2nc(OC[C@@H]3C[C@@H](F)CN3C)nc3c(F)c(-c4cccc5c4CCCC5)c(F)cc23)C[C@@H]1CC#N [Example 432]
(S) C=C(F)C(=O)N1CCN(c2nc(OC[C@@H]3C[C@@H](F)CN3C)nc3c(F)c(-c4ccc(F)c5c4CCCC5)ncc23)C[C@@H]1CC#N [Example 20]
(T) C=CC(=O)N1CCN(c2nc(OC[C@@]34CCCN3C[C@H](F)C4)nc3c(F)c(-c4cccc5c4CC4CC54)ncc23)C[C@@H]1CC#N (single isomer, unassigned) [Example 878]
[in] Please order the records by their reported pIC50, lowest number first. Give your ranking as a list of the labels in the requested order.
[out] T, S, P, Q, R

(P) C=CC(=O)N1CCN(c2nc(OC[C@@H]3C[C@@H](F)CN3C)nc3c(F)c(-c4ccc(F)c5c4CCCC5)ncc23)C[C@@H]1CC#N [Example 19]
(Q) C=CC(=O)N1CCN(c2nc(OC[C@@H]3CCCN3C)nc3c(F)c(-c4cccc5c4CCCC5)c(F)cc23)C[C@@H]1CC#N [Example 429]
(R) C=C(F)C(=O)N1CCN(c2nc(OC[C@@H]3CCCN3C)nc3cc(-c4cccc5c4C4CC4C5)ccc23)C[C@@H]1CC#N (stereo partly drawn) [Example 537]
[in] Please order the records by their reported pIC50, lowest number first. Give your ranking as a list of the labels in the requested order.
[out] R, P, Q
(R: 6.82, P: 7.46, Q: 7.82)

(A) C=C(F)C(=O)N1CCN(c2nc(OC[C@@H]3C[C@@H](F)CN3C)nc3c(F)c(-c4cncc5c4CCCC5)ncc23)C[C@@H]1CC#N [Example 36]
(B) C=CC(=O)N1CC[C@@H]2[C@H]1CN2c1nc(OC[C@@H]2C[C@@H](F)CN2C)nc2c(F)c(-c3ccc(F)c4c3CCCC4)ncc12 [Example 27]
[in] Of A and B , which one carries the higher reported pIC50? Select an item and report its label.
[out] B
